meta.source: PubChem BioAssay AID2316

Listed next: entries and their corresponding activation.
assay: activators reversing PD-1 mediated T-cell inhibition, primary screen, luminescence, primary human CD4 T cells, PD-L1 beads (AID 2316); conditions: CellTiter-Glo 96 h, stronger effect = higher value;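 note: 0% = median vehicle wells and 100% = positive control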
Fewer than 10 of roughly 29,000 compounds were called active. The list is a sample of the results.

Here are 3 molecules together with their reported answers.
Can you share its activation? I mean this molecule: Cc1ccc(S(=O)(=O)Nc2ccc3c(c2)C(=O)N([C@H](C)CO)C[C@H](C)[C@H](CN(C)S(C)(=O)=O)O3)cc1
0.318% (inactive)

And the next one, COC(=O)c1ccc(C(=O)OC)c(NC(=O)COc2ccc(C)cc2)c1 ?
-5.39% (inactive)

And the next one, CS(=O)(=O)N(CC(=O)Nc1cc(C(F)(F)F)ccc1Cl)c1ccc(Br)cc1 ?
-0.295% (inactive)

New cases:
Can you share its activation? I mean this molecule: CS(=O)(=O)N(CC(=O)NC1CC1)c1ccc(Cl)c(C(F)(F)F)c1
-0.255% (inactive)

And the next one, N/C(CSc1nc2ccccc2s1)=N\O ?
-0.165% (inactive)

And the next one, CC(=O)Oc1ccc2occ(C(=O)c3cc4ccccc4o3)c2c1 ?
-0.284% (inactive)

And the next one, COc1ccc(S(=O)(=O)Nc2ccc3c(c2)CC(=O)N([C@H](C)CO)C[C@@H](C)[C@@H](CN(C)C(=O)Nc2cccc4ccccc24)O3)cc1 ?
0.476% (inactive)

And the next one, CC(=O)Nc1ccc(Nc2c3c4c(cccc4[nH]c2=O)C(=O)c2ccccc2-3)cc1 ?
-3.04% (inactive)
